TARGET_SYSTEM: FimX^EAL (Pseudomonas aeruginosa, UniProt Q9HUK6)
TEST_NAME: isothermal titration calorimetry
MEASURED_PROPERTY: pKd
# pKd: negative log10 of molar concentration; output just the value

q: Specify pKd for "Nc1nc2c(ncn2[C@@H]2O[C@@H]3CO[P@](=O)(O)O[C@H]4[C@@H](O)[C@H](n5cnc6c(=O)[nH]c(N)nc65)O[C@@H]4CO[P@](=O)(O)O[C@H]3[C@H]2O)c(=O)[nH]1" and stop.
a: 6.98

This collection of values is drawn from paper PMC2747306.
